Biological target: T1, C-terminally FLAG-tagged human Gas6 recombinant protein (hGas6-F) (human, UniProt Q14393 31-678, gamma-carboxylated glutamic acid residues in the Gla domain (producer cells co-express rat VKOR and human GGCX); positions not given)
T1 construct: also called human Gas6-F; human Gas6 protein
T1 sequence: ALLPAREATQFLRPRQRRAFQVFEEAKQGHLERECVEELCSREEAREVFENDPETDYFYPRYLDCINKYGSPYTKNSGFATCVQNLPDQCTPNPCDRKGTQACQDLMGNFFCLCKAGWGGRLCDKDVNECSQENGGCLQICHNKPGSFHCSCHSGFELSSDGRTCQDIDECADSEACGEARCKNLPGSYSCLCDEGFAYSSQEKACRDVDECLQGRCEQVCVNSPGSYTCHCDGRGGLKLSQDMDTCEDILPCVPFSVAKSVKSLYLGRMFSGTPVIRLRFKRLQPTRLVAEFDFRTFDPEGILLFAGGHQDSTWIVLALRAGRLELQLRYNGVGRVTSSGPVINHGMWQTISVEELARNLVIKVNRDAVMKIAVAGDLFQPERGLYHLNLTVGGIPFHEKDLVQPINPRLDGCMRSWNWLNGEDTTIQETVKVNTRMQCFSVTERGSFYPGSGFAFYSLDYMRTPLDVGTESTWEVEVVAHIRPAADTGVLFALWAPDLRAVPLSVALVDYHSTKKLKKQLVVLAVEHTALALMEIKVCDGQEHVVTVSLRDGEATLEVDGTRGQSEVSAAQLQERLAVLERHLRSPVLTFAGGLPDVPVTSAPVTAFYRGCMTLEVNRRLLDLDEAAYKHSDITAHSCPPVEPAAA
Test: SPR Biacore T100, captured antibody, Gas6 analyte, first test
pKd: −log10 of the molar value.
Recorded pKd by entry

BINDER: hzKM5321 LV4HV0 antibody (antibody, V domains shown, Humanized; variant human IgG4 constant region (EU S228P, L235E, R409K), human kappa; also called B-07; LV4HV0) VH: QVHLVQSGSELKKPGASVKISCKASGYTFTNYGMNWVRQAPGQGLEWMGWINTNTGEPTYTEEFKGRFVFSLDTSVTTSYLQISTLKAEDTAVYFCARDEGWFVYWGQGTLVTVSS VL: ETTLTQSPSSLSVSTGDRVTITCITSTDIDDDMNWYQQKPGKAPKLLISEGNTLRPGVPSRFSGSGSGTDFTFTISSTQPEDFATYYCLQTDSVPLTFGQGTKVEIK
pKd: > 8.36
--
BINDER: hzKM5320 LV5HV3a antibody (antibody, V domains shown, Humanized; variant human IgG4 constant region (EU S228P, L235E, R409K), human kappa; also called A-21) VH: QVQLVQSGSELKKPGASVKVSCKASGYTFTNYGMNWVRQAPGQGLKWMGWINTETGEPTYSDDFKGRFVFSLDTSVSTAYLQISSLKAEDTATYFCAREDGYYGTLDYWGQGTTVTVSS VL: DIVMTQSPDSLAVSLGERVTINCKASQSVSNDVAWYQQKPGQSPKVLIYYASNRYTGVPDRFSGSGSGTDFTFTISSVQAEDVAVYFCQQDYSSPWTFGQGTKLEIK
pKd: > 8.64
--
BINDER: hzKM5320 LV6HV8 antibody (antibody, V domains shown, Humanized; variant human IgG4 constant region (EU S228P, L235E, R409K), human kappa; also called A-17) VH: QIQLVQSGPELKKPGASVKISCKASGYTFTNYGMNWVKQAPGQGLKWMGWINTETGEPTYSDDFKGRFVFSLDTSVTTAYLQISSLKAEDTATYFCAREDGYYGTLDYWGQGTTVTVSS VL: DIVMTQSPDSLAVSAGERVTINCKASQSVSNDVAWYQQKPGQSPKVLIYYASNRYTGVPDRFSGSGSGTDFTFTISSVQAEDVAVYFCQQDYSSPWTFGQGTKLEIK
pKd: > 8.66
--
BINDER: hzKM5321 LV1cHV7 antibody (antibody, V domains shown, Humanized; variant human IgG4 constant region (EU S228P, L235E, R409K), human kappa; also called B-15; LV1cHV7) VH: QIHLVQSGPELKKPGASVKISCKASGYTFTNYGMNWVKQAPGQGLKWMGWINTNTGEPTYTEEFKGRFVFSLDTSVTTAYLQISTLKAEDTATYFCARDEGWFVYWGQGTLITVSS VL: ETTLTQSPSSLSVSVGDRVTITCITSTDIDDDMNWYQQKPGKAPKLLISEGNTLRPGVPSRFSGSGSGTDFTLTISSLQPEDFATYYCLQTDSVPLTFGQGTKVEIK
pKd: > 8.13

Need pKd of hzKM5321 LV7bHV0 antibody (antibody, V domains shown, Humanized; variant human IgG4 constant region (EU S228P, L235E, R409K), human kappa; also called B-10; LV7bHV0) VH: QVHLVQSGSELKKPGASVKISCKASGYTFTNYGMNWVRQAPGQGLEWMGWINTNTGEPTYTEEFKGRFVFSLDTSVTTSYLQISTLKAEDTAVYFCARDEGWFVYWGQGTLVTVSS VL: ETTVTQSPSSLSVSVGDRVTITCITSTDIDDDMNWYQQKPGKAPKLLISEGNTLRPGVPSRFSSSGSGTDFTFTISSTQPEDFADYYCLQTDSVPLTFGQGTKLEIK , thanks.
> 8.73
